Assay: growth inhibition of GSK3B-pretreated HCT116 cells – cell-based, CellTiter-Glo, 0.2 to 20 µM (AID 1117336)
Settings: HCT116 viability after GSK3B inhibitor, at 20 µM, stronger effect = higher value
READOUT TYPE: viability decrease (%)
# output: bare number, implied unit %

Worked examples, 6 compounds total:
CCCCCCn1c(=O)c2c(ncn2C)n(C)c1=O : 1.6
Cc1nc(-c2ccc(Cl)cc2)oc1COC(C)(C)C(=O)O : -10.1
C[C@H](CCC(=O)O)[C@H]1CC[C@H]2[C@H]3[C@@H](CC[C@]12C)[C@@]1(C)CC[C@@H](O)C[C@H]1C[C@@H]3O : -8.5
CC(C)OP(=O)(CP(=O)(OC(C)C)OC(C)C)OC(C)C : -8.5
CC(=O)Oc1ccc(C2(c3ccc(OC(C)=O)cc3)Oc3ccccc3NC2=O)cc1 : 91.8
C#C[C@]1(O)CC[C@@H]2[C@@H]3CCC4=CCCC[C@@H]4[C@H]3C(=C)C[C@@]21CC : 99.1

Prompt line: # get_value(readout='viability decrease', item= Cc1oc(=O)oc1COC(=O)[C@@H]1N2C(=O)[C@@H](NC(=O)[C@H](N)c3ccccc3)[C@H]2SC1(C)C )
Response line: -11.1

Prompt line: # get_value(readout='viability decrease', item= O=C(O)C1CSC(C(=O)O)N1 (stereo unspecified) )
Response line: -6.8

Prompt line: # get_value(readout='viability decrease', item= Cc1cn([C@@H]2O[C@H](CO)[C@@H](O)[C@H]2F)c(=O)[nH]c1=O )
Response line: 26.6

Prompt line: # get_value(readout='viability decrease', item= CC(C)NCC(O)c1ccc(O)c(O)c1 (stereo unspecified) )
Response line: 54.1

Prompt line: # get_value(readout='viability decrease', item= CC(CN1c2ccccc2Sc2ccccc21)N(C)C (stereo unspecified) )
Response line: 28.6

Recorded values, source PubChem BioAssay.
